The reported numbers originate from PubChem BioAssay AID449750.

Assay: non-covalent RecA intein splicing inhibitors, dose response, biochemical, cell-free, fluorescence, secondary screen (AID 449750)
Activity calls are given as the source filed them. How the calls were made is not given here.
A correct response names exactly one class from active, inactive

compound=COC(=O)N/N=C\c1ccc(OC(=O)c2ccco2)cc1 discrete_label=inactive
compound="COc1ccc(C(C(=O)NC2CCCCC2)N(C(=O)CCl)c2cccc(Cl)c2)cc1 (stereo unspecified)" discrete_label=active
compound=Cc1nn(C(=O)c2cccnc2)c(C)c1Sc1ccc(Br)cc1 discrete_label=active
compound=O=C1/C(=C/Nc2ccc3c(c2)OCO3)CCc2ccccc21 discrete_label=active
compound=Cc1cc(C)c(S(C)(=O)=O)c(Oc2cccc(C(F)(F)F)c2)n1 discrete_label=inactive

Data request: Outcome? COc1ccccc1NC(=O)c1cnc(SCC(=O)NCC2CCCO2)n(C)c1=O (stereo unspecified)
Data returned: inactive
